Attribution: paper PMC5724930

target: PanZ (Escherichia coli, UniProt P37613, R73A); construct: PanZ(R73A); experiment: ITC
Sequence (P37613 whole entry R73A): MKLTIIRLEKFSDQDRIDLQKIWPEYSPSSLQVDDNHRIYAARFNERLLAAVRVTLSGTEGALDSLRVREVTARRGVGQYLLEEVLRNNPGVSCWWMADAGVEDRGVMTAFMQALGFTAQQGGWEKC
pKd: −log10 of the molar value.
READOUT_LABEL: pKd

| SAMPLE_SMILES | READOUT_LABEL | VALUE_MEASURED |
| --- | --- | --- |
| CC(=O)SCCNC(=O)CCNC(=O)[C@H](O)C(C)(C)COP(=O)(O)OP(=O)(O)OC[C@H]1O[C@@H](n2cnc3c(N)ncnc32)[C@H](O)[C@@H]1OP(=O)(O)O | pKd | 3.66 |
